Origin of measurements: ChEMBL document CHEMBL1148762

tested on: NCI-H322M; assay: Cytotoxicity against human NCI-H322M cells; format: functional
GI50 by entry:

Compound	Study System	GI50 / nM
C/C=C1\NC(=O)[C@H](Cc2ccccc2)NC(=O)[C@@H](C(C)C)NC(=O)[C@@H]([C@@H](C)CC)NC(=O)[C@H](NC(=O)[C@H](NC(=O)[C@H](CCCNC(=O)c2cc3ccc(N(CC)CC)cc3oc2=O)NC(=O)[C@H]2CCCN2C(=O)[C@H](NC(=O)[C@@H](NC(=O)[C@@H](NC(=O)[C@H](NC(=O)CCCC(C)C)C(C)C)[C@@H](C)O)C(C)C)C(C)C)[C@@H](C)CC)[C@@H](C)OC(=O)[C@H](C(C)C)NC1=O	NCI-H322M	165
C/C=C1\NC(=O)[C@H](Cc2ccccc2)NC(=O)[C@@H](C(C)C)NC(=O)[C@@H]([C@@H](C)CC)NC(=O)[C@H](NC(=O)[C@H](NC(=O)[C@H](CCCNCc2ccc(F)cc2)NC(=O)[C@H]2CCCN2C(=O)[C@H](NC(=O)[C@@H](NC(=O)[C@@H](NC(=O)[C@H](NC(=O)CCCC(C)C)C(C)C)[C@@H](C)O)C(C)C)C(C)C)[C@@H](C)CC)[C@@H](C)OC(=O)[C@H](C(C)C)NC1=O	NCI-H322M	203
C/C=C1\NC(=O)[C@H](Cc2ccccc2)NC(=O)[C@@H](C(C)C)NC(=O)[C@@H]([C@@H](C)CC)NC(=O)[C@H](NC(=O)[C@H](NC(=O)[C@H](CCCNCc2ccncc2)NC(=O)[C@H]2CCCN2C(=O)[C@H](NC(=O)[C@@H](NC(=O)[C@@H](NC(=O)[C@H](NC(=O)CCCC(C)C)C(C)C)[C@@H](C)O)C(C)C)C(C)C)[C@@H](C)CC)[C@@H](C)OC(=O)[C@H](C(C)C)NC1=O	NCI-H322M	131
C/C=C1\NC(=O)[C@H](Cc2ccccc2)NC(=O)[C@@H](C(C)C)NC(=O)[C@@H]([C@H](C)CC)NC(=O)[C@H](NC(=O)[C@H](NC(=O)[C@H](CCCN)NC(=O)[C@H]2CCCN2C(=O)[C@H](NC(=O)[C@@H](NC(=O)[C@@H](NC(=O)[C@H](NC(=O)CCCC(C)C)C(C)C)[C@@H](C)O)C(C)C)C(C)C)[C@H](C)CC)[C@H](C)OC(=O)[C@H](C(C)C)NC1=O [KAHALALIDE F]	NCI-H322M	191
C/C=C1\NC(=O)[C@H](Cc2ccccc2)NC(=O)[C@@H](C(C)C)NC(=O)[C@@H]([C@@H](C)CC)NC(=O)[C@H](NC(=O)[C@H](NC(=O)[C@H](CCCNCc2cccs2)NC(=O)[C@H]2CCCN2C(=O)[C@H](NC(=O)[C@@H](NC(=O)[C@@H](NC(=O)[C@H](NC(=O)CCCC(C)C)C(C)C)[C@@H](C)O)C(C)C)C(C)C)[C@@H](C)CC)[C@@H](C)OC(=O)[C@H](C(C)C)NC1=O	NCI-H322M	167
CC(=O)O[C@H]1C(=O)[C@@]2(C)[C@H]([C@H](OC(=O)c3ccccc3)[C@]3(O)C[C@H](OC(=O)[C@H](O)[C@@H](NC(=O)c4ccccc4)c4ccccc4)C(C)=C1C3(C)C)[C@]1(OC(C)=O)CO[C@@H]1C[C@@H]2O	NCI-H322M	13
